B1: Vang-like protein 1 (Homo sapiens), Q8TAA9 (parent)
chain: MDTESTYSGYSYYSSHSKKSHRQGERTRERHKSPRNKDGRGSEKSVTIQPPTGEPLLGNDSTRTEEVQDDNWGETTTAITGTSEHSISQEDIARISKDMEDSVGLDCKRYLGLTVASFLGLLVFLTPIAFILLPPILWRDELEPCGTICEGLFISMAFKLLILLIGTWALFFRKRRADMPRVFVFRALLLVLIFLFVVSYWLFYGVRILDSRDRNYQGIVQYAVSLVDALLFIHYLAIVLLELRQLQPMFTLQVVRSTDGESRFYSLGHLSIQRAALVVLENYYKDFTIYNPNLLTASKFRAAKHMAGLKVYNVDGPSNNATGQSRAMIAAAARRRDSSHNELYYEEAEHERRVKKRKARLVVAVEEAFIHIQRLQAEEQQKAPGEVMDPREAAQAIFPSMARALQKYLRITRQQNYHSMESILQHLAFCITNGMTPKAFLERYLSAGPTLQYDKDRWLSTQWRLVSDEAVTNGLRDGIVFVLKCLDFSLVVNVKKIPFIILSEEFIDPKSHKFVLRLQSETSV
partner: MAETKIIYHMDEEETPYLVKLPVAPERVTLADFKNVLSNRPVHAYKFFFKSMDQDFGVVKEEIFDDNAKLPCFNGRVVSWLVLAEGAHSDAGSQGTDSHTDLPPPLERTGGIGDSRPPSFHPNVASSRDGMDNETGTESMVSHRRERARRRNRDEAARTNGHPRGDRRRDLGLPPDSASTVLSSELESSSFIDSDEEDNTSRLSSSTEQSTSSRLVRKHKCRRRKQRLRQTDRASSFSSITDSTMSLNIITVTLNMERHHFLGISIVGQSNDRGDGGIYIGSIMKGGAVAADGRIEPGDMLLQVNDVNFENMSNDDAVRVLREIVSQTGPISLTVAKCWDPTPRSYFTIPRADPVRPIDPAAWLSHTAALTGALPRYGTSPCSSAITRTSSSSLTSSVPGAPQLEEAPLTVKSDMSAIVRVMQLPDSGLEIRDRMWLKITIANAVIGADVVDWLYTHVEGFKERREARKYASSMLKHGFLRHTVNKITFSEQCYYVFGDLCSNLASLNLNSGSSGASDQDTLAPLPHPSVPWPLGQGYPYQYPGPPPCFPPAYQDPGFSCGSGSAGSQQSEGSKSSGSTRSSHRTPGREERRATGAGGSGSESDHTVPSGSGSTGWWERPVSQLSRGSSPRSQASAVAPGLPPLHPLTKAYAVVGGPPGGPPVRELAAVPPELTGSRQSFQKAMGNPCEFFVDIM

- Variants of: B1
- test-parameters: with dvl1_mouse Dvl1, P51141
experimental-readout: effect of a mutation on the interaction

M328T
with no effect
R274Q
with no effect
